- Tested on: cells of mouse spleen
- experiment-notes: cells
- Type: cell-based, C3H/HeJ mouse
- condition-details: Mus musculus, 24 h, read-out: Minimum effective concentration (interferon inducing activity)
quantity-measured: minimal effective concentration (µM)

>>> readout_value("CCCCOc1nc(N)c2nc(O)n(Cc3cccc(C(=O)O)c3)c2n1 [Comparative example 1, reference compound]")
0.003
>>> readout_value("Cc1ccc(Cn2c(O)nc3c(N)nc(NCCO)nc32)cn1 [Comparative example 10, reference compound]")
1
>>> readout_value("CCCCOc1nc(N)c2nc(O)n(Cc3ccc(N4CCCC(C(=O)OCC)C4)nc3)c2n1 (stereo not shown) [Example 25]")
0.003
>>> readout_value("CC(=O)OCCNc1nc(N)c2nc(O)n(Cc3ccc(C)nc3)c2n1 [Example 33]")
0.1
>>> readout_value("COC(=O)OCCOc1nc(N)c2nc(O)n(Cc3ccc(C)nc3)c2n1 [Example 38]")
0.01
>>> readout_value("CCNC(=O)CSc1nc(N)c2nc(O)n(Cc3ccccc3)c2n1 [Example 50]")
0.1
>>> readout_value("CCOC(=O)CC(=O)CSc1nc(N)c2nc(O)n(Cc3ccccc3)c2n1 [Example 58]")
0.1

###

- Test system: plasma esterase
- condition-details: rat plasma, test compound 10 μM, 37° C., 15 minutes
Residual rate reference
quantity-measured: Residual rate (%)

>>> readout_value("CCCCOc1nc(N)c2nc(O)n(Cc3cccc(C(=O)OCCOCc4ccccc4)c3)c2n1")
18
>>> readout_value("CCCCOc1nc(N)c2nc(O)n(Cc3ccc(N4CCC(C(=O)OCC)CC4)nc3)c2n1")
7
>>> readout_value("COC(=O)Cc1nc(N)c2nc(O)n(Cc3ccccc3)c2n1")
0
>>> readout_value("COC(=O)CNc1nc(N)c2nc(O)n(Cc3ccc(C)nc3)c2n1")
0
>>> readout_value("COC(=O)CNc1nc(N)c2nc(O)n(Cc3ccccc3)c2n1")
0
>>> readout_value("CCCCNc1nc(N)c2nc(O)n(Cc3ccc(C(=O)OC)cc3)c2n1")
0
>>> readout_value("CCC(=O)OCCOc1nc(N)c2nc(O)n(Cc3ccc(C)nc3)c2n1")
0
>>> readout_value("CCCCOc1nc(N)c2nc(O)n(Cc3ccc(C(=O)OC(C)C)o3)c2n1")
0
>>> readout_value("CCCCCCCCOC(=O)CSc1nc(N)c2nc(O)n(Cc3ccccc3)c2n1")
0
>>> readout_value("CCOC(=O)CCSc1nc(N)c2nc(O)n(Cc3ccccc3)c2n1")
0
>>> readout_value("CCOC(=O)CC(=O)CSc1nc(N)c2nc(O)n(Cc3ccccc3)c2n1")
0
>>> readout_value("CCCCOc1nc(N)c2nc(O)n(Cc3cccc(C(=O)OCCN(C)C)c3)c2n1")
1
>>> readout_value("COC(=O)OCCNc1nc(N)c2nc(O)n(Cc3ccc(C)nc3)c2n1")
11
>>> readout_value("CCOC(=O)C(C)Sc1nc(N)c2nc(O)n(Cc3ccccc3)c2n1 (stereo not shown)")
0
>>> readout_value("COC(=O)CCSc1nc(N)c2nc(O)n(Cc3ccccc3)c2n1")
0
>>> readout_value("Nc1nc(SC2CCOC2=O)nc2c1nc(O)n2Cc1ccccc1 (stereo not shown)")
0
>>> readout_value("CCOC(=O)CSc1nc(N)c2nc(O)n(Cc3ccccc3)c2n1")
0
>>> readout_value("COCCOC(=O)CSc1nc(N)c2nc(O)n(Cc3ccccc3)c2n1")
0
>>> readout_value("CCOC(=O)Cc1nc(N)c2nc(O)n(Cc3ccccc3)c2n1")
0
>>> readout_value("CCCCOc1nc(N)c2nc(O)n(Cc3cccc(C(=O)OCC(F)(F)F)c3)c2n1")
23
>>> readout_value("CCCCOc1nc(N)c2nc(O)n(Cc3ccc(C(=O)OCc4cccnc4)cc3)c2n1")
10
>>> readout_value("CCCCOc1nc(N)c2nc(O)n(Cc3ccc(C(=O)OC(C)C)cc3)c2n1")
29
>>> readout_value("CCCCOc1nc(N)c2nc(O)n(Cc3ccc(C(=O)OC)o3)c2n1")
0
>>> readout_value("CCCCOc1nc(N)c2nc(O)n(Cc3ccc(C(=O)OC(C)C)nc3)c2n1")
0
>>> readout_value("CCCCOc1nc(N)c2nc(O)n(Cc3cccc(C(=O)OC(C)C)c3)c2n1")
20
>>> readout_value("CCCCOc1nc(N)c2nc(O)n(Cc3ccc(N4CCCC(C(=O)OCC)C4)nc3)c2n1 (stereo not shown)")
16
>>> readout_value("CCCCOc1nc(N)c2nc(O)n(Cc3ccc(CC(=O)OC)cc3)c2n1")
0
>>> readout_value("CCCCOc1nc(N)c2nc(O)n(Cc3cccc(C(=O)OCC)c3)c2n1")
5
>>> readout_value("Nc1nc(SCC(=O)OCCF)nc2c1nc(O)n2Cc1ccccc1")
0
>>> readout_value("CCCCOc1nc(N)c2nc(O)n(Cc3cccc(C(=O)OCc4cccnc4)c3)c2n1")
1
>>> readout_value("Nc1nc(SCC(=O)OCC(F)(F)F)nc2c1nc(O)n2Cc1ccccc1")
0
>>> readout_value("CCCCOc1nc(N)c2nc(O)n(Cc3cccc(C(=O)OCCO)c3)c2n1")
14
>>> readout_value("CCCCOc1nc(N)c2nc(O)n(Cc3cccc(C(=O)OCCN4CCOCC4)c3)c2n1")
16
>>> readout_value("CCOC(=O)CCCSc1nc(N)c2nc(O)n(Cc3ccccc3)c2n1")
0
>>> readout_value("CC(C)(C)OC(=O)CSc1nc(N)c2nc(O)n(Cc3ccccc3)c2n1")
0
>>> readout_value("CCCCOc1nc(N)c2[nH]c(=O)n(Cc3cccc(C(=O)OC)c3)c2n1")
32
>>> readout_value("CCCCOc1nc(N)c2nc(O)n(Cc3ccc(C(=O)OC)nc3)c2n1")
0

###

- experiment-notes: Metabolic stability on liver S9 of rat
- condition-details: rat liver S9, test compound 1 μM, 37° C.
quantity-measured: Residual rate (%)

>>> readout_value("CCOC(=O)Cc1nc(N)c2nc(O)n(Cc3ccccc3)c2n1")
4
>>> readout_value("CCCCOc1nc(N)c2[nH]c(=O)n(Cc3cccc(C(=O)OC)c3)c2n1")
7
>>> readout_value("CC(C)(C)OC(=O)CSc1nc(N)c2nc(O)n(Cc3ccccc3)c2n1")
2
>>> readout_value("CCOC(=O)CCCSc1nc(N)c2nc(O)n(Cc3ccccc3)c2n1")
1
>>> readout_value("COCCOc1nc(N)c2[nH]c(=O)n(Cc3cccc(CC(=O)OC)c3)c2n1")
0
>>> readout_value("CCCCOc1nc(N)c2nc(O)n(Cc3cccc(CC(=O)OCCF)c3)c2n1")
16
>>> readout_value("CCCCOc1nc(N)c2nc(O)n(Cc3cccc(C(=O)OCCN4CCOCC4)c3)c2n1")
1
>>> readout_value("CCCCOc1nc(N)c2[nH]c(=O)n(Cc3cccc(CC(=O)OCC)c3)c2n1")
0
>>> readout_value("COC(=O)Cc1cccc(CSc2nc(N)c3nc(O)n(Cc4ccccc4)c3n2)c1")
1
>>> readout_value("Nc1nc(SCC(=O)N2CCCCC2)nc2c1nc(O)n2Cc1ccccc1")
0
>>> readout_value("CCCCOc1nc(N)c2nc(O)n(Cc3ccc(C(=O)OC(C)C)o3)c2n1")
0
>>> readout_value("Nc1nc(SCC(=O)OCC(F)F)nc2c1nc(O)n2Cc1ccccc1")
0
>>> readout_value("CC(C)OC(=O)Cc1nc(N)c2nc(O)n(Cc3ccccc3)c2n1")
3
>>> readout_value("CSC(=O)CCc1nc(N)c2nc(O)n(Cc3ccccc3)c2n1")
0
>>> readout_value("CCCCOc1nc(N)c2nc(O)n(Cc3cccc(C(=O)OCC(F)(F)F)c3)c2n1")
25
>>> readout_value("CCNC(=O)CSc1nc(N)c2nc(O)n(Cc3ccccc3)c2n1")
7
>>> readout_value("CCOC(=O)C(C)Sc1nc(N)c2nc(O)n(Cc3ccccc3)c2n1 (centres unmarked)")
2
>>> readout_value("C=CCOC(=O)CSc1nc(N)c2nc(O)n(Cc3ccccc3)c2n1")
0
>>> readout_value("Nc1nc(CC(=O)OCCF)nc2c1nc(O)n2Cc1ccccc1")
0
>>> readout_value("COC(=O)CCc1nc(N)c2nc(O)n(Cc3ccc(CC(=O)OC)cc3)c2n1")
0
>>> readout_value("Nc1nc(SCC(=O)OCCF)nc2c1nc(O)n2Cc1ccccc1")
0
>>> readout_value("CCCCOc1nc(N)c2nc(O)n(Cc3cccc(C(=O)OC(C)C)c3)c2n1")
19
>>> readout_value("COC(=O)CNc1nc(N)c2nc(O)n(Cc3ccccc3)c2n1")
3
>>> readout_value("CCCCOc1nc(N)c2nc(O)n(Cc3ccc(C(=O)OC)nc3)c2n1")
28
>>> readout_value("CCCCOc1nc(N)c2nc(O)n(Cc3cccc(C(=O)OCC)c3)c2n1")
11
>>> readout_value("COC(=O)CCc1nc(N)c2nc(O)n(Cc3ccc(C)nc3)c2n1")
0
>>> readout_value("CCCCOc1nc(N)c2nc(O)n(Cc3ccc(CC(=O)OC(C)C)cc3)c2n1")
26
>>> readout_value("CCCCOc1nc(N)c2nc(O)n(Cc3ccc(OC(O)CCC(=O)OC)cc3)c2n1 (centres unmarked)")
4
>>> readout_value("CCCCOc1nc(N)c2nc(O)n(Cc3ccc(CN4CCOCC4)cc3)c2n1")
17
